// values below are reported Substrate Specificity, relative activity
# System: Transaminase of Present Invention (purified enzyme)
# protocol: Reactivity of purified transaminase to amino compounds (amino group donors) with pyruvic acid as acceptor
# Assay type: biochemical, Arthrobacter sp. KNK168
# run.conditions: purified enzyme; pyruvic acid as amino group acceptor

>  <molecule>
NCCCCN [Putrescine]

>  <experimental.system>
Transaminase of Present Invention (purified enzyme)

>  <Substrate Specificity, relative activity / %>
0

$$$$
>  <molecule>
CCCCN [n-Butylamine]

>  <experimental.system>
Transaminase of Present Invention (purified enzyme)

>  <Substrate Specificity, relative activity / %>
0

$$$$
>  <molecule>
CC(N)CC(=O)O (racemic) [DL-3-Aminobutyric acid]

>  <experimental.system>
Transaminase of Present Invention (purified enzyme)

>  <Substrate Specificity, relative activity / %>
0

$$$$
>  <molecule>
NCCc1ccccc1 [β-Phenethylamine]

>  <experimental.system>
Transaminase of Present Invention (purified enzyme)

>  <Substrate Specificity, relative activity / %>
0

$$$$
>  <molecule>
NCc1ccccc1 [Benzylamine]

>  <experimental.system>
Transaminase of Present Invention (purified enzyme)

>  <Substrate Specificity, relative activity / %>
0.8

$$$$
>  <molecule>
NCCCC(=O)O [4-Aminobutyric acid]

>  <experimental.system>
Transaminase of Present Invention (purified enzyme)

>  <Substrate Specificity, relative activity / %>
0

$$$$

* * *

# Tested on: Transaminase of Present Invention (purified enzyme)
# protocol: Influence of reaction inhibitors on purified transaminase
# Format: biochemical, Arthrobacter sp. KNK168
# run.conditions: inhibitor 1 mM; without addition = 100
# Source text: The differences with the ω-amino acid transaminase derived from Pseudomonas sp. F-1 (Agric. Biol. Chem., 42, 2363–2367 (1978), Agric. Biol. Chem., 43, 1043–1048 (1979), J. Biol. Chem., 258, 2260–2265 (1983)) which have been well studied among the ω-amino acid transaminases, and with the benzylamine transaminase of Okada et al. (Japanese Patent Laid-Open No. Hei 6-178685) are summarized and shown in Table 2. […]
Listed below: Relative activity with inhibitor values for each entry.
endpoint.label: Relative activity with inhibitor (%)

>  <molecule>
CC(C)(S)[C@@H](N)C(=O)O [D-Penicillamine]

>  <result>
93

$$$$
>  <molecule>
NNc1ccccc1 [Phenylhydrazine]

>  <result>
82

$$$$
>  <molecule>
O=C(O)c1cc[c]([Hg][Cl])cc1 [p-Chloromercuribenzoic acid]

>  <result>
53

$$$$
>  <molecule>
NC1C=CC=C(C(=O)O)C1 (racemic) [Gabaculine]

>  <result>
24

$$$$
>  <molecule>
NO [Hydroxylamine]

>  <result>
17

$$$$
>  <molecule>
O=S(=O)([O-])[O-].[Cu+2] [CuSO4]

>  <result>
44

$$$$

* * *

# Test system: purified enzyme protein (transaminase)
# protocol: Reactivity of purified transaminase to carbonyl compounds with (R)-1-phenylethylamine as amino group donor
# Format: biochemical, Arthrobacter species KNK168
# run.conditions: 25 mM carbonyl compound, 25 mM (R)-1-phenylethylamine, pH 8.5, 30° C.; pyruvic acid = 100
Note to self: use true only for Relative Activity readings below 10%; a reading exactly at 10% still gets false.

>  <molecule>
O=C(O)CC(=O)C(=O)O

>  <class>
false

$$$$
>  <molecule>
CCOC(=O)C(C)=O [Ethyl pyruvate]

>  <class>
false

$$$$
>  <molecule>
CC(=O)c1ccncc1

>  <class>
false

$$$$
>  <molecule>
COCC(C)=O

>  <class>
false

$$$$
>  <molecule>
CC(=O)Oc1cccnc1

>  <class>
true

$$$$
>  <molecule>
CC(=O)c1cnccn1

>  <class>
false

$$$$
>  <molecule>
CC(=O)CCc1ccccc1

>  <class>
true

$$$$
>  <molecule>
COc1ccc(CC(C)=O)cc1OC

>  <class>
true

$$$$
>  <molecule>
CC(=O)COc1ccccc1

>  <class>
false

$$$$
>  <molecule>
CCOC(=O)CC(=O)c1ccccc1 [Ethyl benzoyl acetate]

>  <class>
true

$$$$
>  <molecule>
CCOC(=O)CC(C)=O [Ethyl acetoacetate]

>  <class>
true

$$$$
>  <molecule>
O=C1CCCc2ccccc21

>  <class>
true

$$$$
>  <molecule>
CC(=O)c1ccccn1

>  <class>
false

$$$$
>  <molecule>
CCC(=O)Cc1ccccc1

>  <class>
true

$$$$
>  <molecule>
O=CCc1ccccc1

>  <class>
false

$$$$
>  <molecule>
CC(=O)c1cccs1

>  <class>
true

$$$$
